- measurement.target: FXIa (Homo sapiens, UniProt P03951)
- Construct: FVIIa, Fxa, FXIa, Furin
- Sequence (P03951 388-625 limits assumed): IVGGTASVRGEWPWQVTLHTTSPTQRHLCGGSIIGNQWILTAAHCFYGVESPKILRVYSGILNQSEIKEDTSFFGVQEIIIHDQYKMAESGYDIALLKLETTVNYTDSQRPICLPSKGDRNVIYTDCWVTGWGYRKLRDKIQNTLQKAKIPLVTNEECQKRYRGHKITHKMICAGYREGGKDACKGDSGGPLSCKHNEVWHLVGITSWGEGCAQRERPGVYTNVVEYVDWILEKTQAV
- Sequence (P03951 19-387 partner limits assumed): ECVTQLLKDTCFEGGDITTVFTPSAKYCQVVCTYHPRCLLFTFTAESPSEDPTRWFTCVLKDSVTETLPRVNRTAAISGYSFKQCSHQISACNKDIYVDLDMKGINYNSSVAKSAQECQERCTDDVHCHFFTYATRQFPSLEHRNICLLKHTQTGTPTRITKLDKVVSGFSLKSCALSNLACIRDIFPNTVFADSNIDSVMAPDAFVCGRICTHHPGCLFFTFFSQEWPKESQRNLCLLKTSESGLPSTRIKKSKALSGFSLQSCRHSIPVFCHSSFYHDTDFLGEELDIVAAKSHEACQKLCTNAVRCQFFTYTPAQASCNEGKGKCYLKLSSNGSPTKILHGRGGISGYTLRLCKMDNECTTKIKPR
- experiment: Non-TMPRSS2 protease panel: FXIa
- Assay type: biochemical
- stated.conditions: FXIa; 10-dose, 3-fold from 10 μM
measurement.type: IC50

In [3]: df
Out[3]:
                                   molecule                   measurement_target  measured_result
0  N=C(N)c1cccc(C[C@H](NS(=O)(=O)c2ccccc2)c2nnco2)c1 (single isomer, unassigned) [Compound 2 (enantiomer 1, batch 1)]  FXIa (Homo sapiens, UniProt P03951)          > 10 µM
1  N=C(N)c1cccc(CC(NS(=O)(=O)c2cccc(-c3ccc(Cl)cc3Cl)c2)c2nc3ccccc3s2)c1 (racemic) [3 (racemic)]  FXIa (Homo sapiens, UniProt P03951)          > 10 µM

INPUT: Entry N=C(N)c1cccc(CC(NS(=O)(=O)c2ccccc2)c2nc3ccccc3s2)c1 (racemic) [1 (racemic mixture, batch 1)] has what IC50?
OUTPUT: > 10 µM

###

- measurement.target: Recombinant human TMPRSS2 protein (106-492 aa) (Homo sapiens, UniProt O15393)
- Construct: Human TMPRSS2-(AA 106-492)-
- Sequence (O15393 106-492): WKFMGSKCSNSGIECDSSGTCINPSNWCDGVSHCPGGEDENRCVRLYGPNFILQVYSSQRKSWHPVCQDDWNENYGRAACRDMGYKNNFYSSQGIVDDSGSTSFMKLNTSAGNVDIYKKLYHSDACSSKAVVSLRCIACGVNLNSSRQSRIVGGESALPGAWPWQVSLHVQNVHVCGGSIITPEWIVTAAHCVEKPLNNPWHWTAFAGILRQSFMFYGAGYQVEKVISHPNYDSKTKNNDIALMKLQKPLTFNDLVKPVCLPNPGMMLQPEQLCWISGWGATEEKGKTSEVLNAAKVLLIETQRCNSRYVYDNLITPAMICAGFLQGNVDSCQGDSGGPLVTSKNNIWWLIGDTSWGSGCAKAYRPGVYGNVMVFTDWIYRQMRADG
- experiment: TMPRSS2 Assay 1 (Example 41), fluorogenic Boc-Gln-Ala-Arg-AMC cleavage
- stated.conditions: TMPRSS2 10 nM, substrate 25 μM, 20 min pre-incubation
measurement.type: IC50

Known IC50 results, listed for orientation:
                                   molecule  measurement_type  measured_result
0  N=C(N)c1cccc(CC(NS(=O)(=O)c2ccccc2)c2nc3c(s2)CNCC3)c1 (centres unmarked) [Compound 10]              IC50          > 10 µM
1  N=C(N)c1cccc(CC(NS(=O)(=O)c2ccccc2)c2nc3cnccc3s2)c1 (centres unmarked) [Compound 18]              IC50          < 10 µM

List the reported IC50 of each molecule below.
1. CN(C)CCN(C)c1cccc2nc(C(Cc3cccc(C(=N)N)c3)NS(=O)(=O)c3ccccc3)sc12 (centres unmarked) [Compound 16]
2. N=C(N)c1cccc(CC(NS(=O)(=O)c2ccccc2)c2ncc[nH]2)c1 (centres unmarked) [Compound 7]
3. COc1ccc2nc(C(Cc3cccc(C(=N)N)c3)NS(=O)(=O)c3ccccc3)sc2c1 (single isomer, unassigned) [11 (enantiomer 1)]

OUTPUT:
1: > 10 µM; 2: > 10 µM; 3: > 10 µM

List the reported IC50 of each molecule below.
1. N=C(N)c1cccc(CC(NS(=O)(=O)c2ccccc2)c2nc3ccccc3s2)c1 (racemic) [1 (racemic mixture, batch 1)]
2. N=C(N)c1cccc(CC(NS(=O)(=O)c2cccc(-c3ccc(Cl)cc3Cl)c2)c2nccs2)c1 (single isomer, unassigned) [Compound 5 (Isomer 3)]
3. COCCN(C)c1cccc2nc(C(Cc3cccc(C(=N)N)c3)NS(=O)(=O)c3ccccc3)sc12 (centres unmarked) [Compound 17]
4. N=C(N)c1cccc(C[C@H](NS(=O)(=O)c2ccccc2)c2nc3ccc(C(F)(F)F)cc3s2)c1 [14 (batch 1)]
5. N=C(N)c1cccc(CC(NS(=O)(=O)c2ccccc2)c2nc3ccc(C(F)(F)F)cc3s2)c1 (single isomer, unassigned) [14 (enantiomer 1)]
6. N=C(N)c1cccc(CC(NS(=O)(=O)c2cccc(-c3ccc(Cl)cc3Cl)c2)c2nccs2)c1 (single isomer, unassigned) [5 (Isomer 1, batch 1)]

OUTPUT:
1. < 10 µM
2. < 10 µM
3. < 10 µM
4. < 10 µM
5. > 10 µM
6. < 10 µM

List the reported IC50 of each molecule below.
1. N=C(N)c1cccc(CC(NS(=O)(=O)c2ccccc2)c2nc3cc(C(F)(F)F)ccc3s2)c1 (single isomer, unassigned) [12 (enantiomer 2)]
2. N=C(N)c1cccc(CC(NS(=O)(=O)c2cccc(-c3ccc(Cl)cc3Cl)c2)c2nc3ccccc3s2)c1 (racemic) [3 (racemic)]
3. N=C(N)c1cccc(CC(NS(=O)(=O)c2ccccc2)c2nc3cc(C(F)(F)F)ccc3s2)c1 (centres unmarked) [Compound 12]
4. N=C(N)c1cccc(CC(NS(=O)(=O)c2cccc(Br)c2)c2nccs2)c1 (centres unmarked) [Compound 4]
5. N=C(N)c1cccc(CC(NS(=O)(=O)c2ccccc2)c2nc3cccc(Cl)c3s2)c1 (single isomer, unassigned) [13 (enantiomer 2)]
6. N=C(N)c1cccc(CC(NS(=O)(=O)c2ccccc2)c2nc3cccc(Cl)c3s2)c1 (single isomer, unassigned) [13 (enantiomer 1)]
7. COc1ccc2nc(C(Cc3cccc(C(=N)N)c3)NS(=O)(=O)c3ccccc3)sc2c1 (single isomer, unassigned) [11 (enantiomer 2)]
8. N=C(N)c1cccc(CC(NS(=O)(=O)c2cccc(-c3ccc(Cl)cc3Cl)c2)c2nc3ccccc3s2)c1 (single isomer, unassigned) [3 (enantiomer 2)]

OUTPUT:
1. < 10 µM
2. < 10 µM
3. < 10 µM
4. > 10 µM
5. < 10 µM
6. > 10 µM
7. < 10 µM
8. < 10 µM

List the reported IC50 of each molecule below.
1. N=C(N)c1cccc(CC(NS(=O)(=O)c2ccccc2)c2nc3cc(C(F)(F)F)ccc3s2)c1 (single isomer, unassigned) [12 (enantiomer 1)]
2. N=C(N)c1cccc(CC(NS(=O)(=O)c2cccc(-c3ccc(Cl)cc3Cl)c2)c2nc3ccccc3s2)c1 (single isomer, unassigned) [3 (enantiomer 1)]
3. N=C(N)c1cccc(CC(NS(=O)(=O)c2ccccc2)c2nc3ccccc3s2)c1 (single isomer, unassigned) [Compound 1 (enantiomer 2, batch 1)]

OUTPUT:
["> 10 µM", "> 10 µM", "< 10 µM"]

List the reported IC50 of each molecule below.
1. CN1CCN(c2cccc3nc(C(Cc4cccc(C(=N)N)c4)NS(=O)(=O)c4ccccc4)sc23)CC1 (centres unmarked) [Compound 15]
2. N=C(N)c1cccc(CC(NS(=O)(=O)c2ccccc2)c2nc3cccnc3s2)c1 (centres unmarked) [Compound 19]
3. N=C(N)c1cccc(CC(NS(=O)(=O)c2cccc(-c3ccc(Cl)cc3Cl)c2)c2nccs2)c1 (single isomer, unassigned) [Compound 5 (Isomer 2)]
4. Cn1cnnc1[C@H](Cc1cccc(C(=N)N)c1)NS(=O)(=O)c1cccc(-c2ccc(Cl)cc2Cl)c1 [Compound 6]

OUTPUT:
< 10 µM
< 10 µM
< 10 µM
> 10 µM

###

Entries with reported pIC50 on MMP 13 (Homo sapiens)
pIC50: −log10 of the molar value.

>>> print(df.to_string())
                                   compound  measured_result
0  N=C(N)c1cccc(CC(NS(=O)(=O)c2ccccc2)c2nc3ccccc3s2)c1 (racemic) [1 (racemic mixture, batch 1)]           < 5.00
1  N=C(N)c1cccc(C[C@H](NS(=O)(=O)c2ccccc2)c2nnco2)c1 (single isomer, unassigned) [Compound 2 (enantiomer 1, batch 1)]           < 5.00
2  COc1ccc2nc(C(Cc3cccc(C(=N)N)c3)NS(=O)(=O)c3ccccc3)sc2c1 (stereo not shown)           < 5.00

As a next step, examine the compound that follows.
INPUT: Entry N=C(N)c1cccc(CC(NS(=O)(=O)c2cccc(-c3ccc(Cl)cc3Cl)c2)c2nc3ccccc3s2)c1 (racemic) [3 (racemic)] has what pIC50?
OUTPUT: < 5.00

###

- measurement.target: Kallikrein 1 (Homo sapiens)
- Sequence (P06870 25-262): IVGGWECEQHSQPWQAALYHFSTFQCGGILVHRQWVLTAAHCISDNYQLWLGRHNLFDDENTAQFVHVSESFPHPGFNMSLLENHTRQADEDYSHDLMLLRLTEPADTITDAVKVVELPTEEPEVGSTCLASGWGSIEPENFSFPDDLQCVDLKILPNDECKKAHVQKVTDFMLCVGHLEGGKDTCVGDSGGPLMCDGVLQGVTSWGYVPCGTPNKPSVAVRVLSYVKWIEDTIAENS
- experiment: Non-TMPRSS2 protease panel: Kallikrein 1
- Format: biochemical
- stated.conditions: 10-dose, 3-fold from 10 μM
Field: IC50. Provide a value for each of the compounds that follow.

List the reported IC50 of each compound below.
1. COc1ccc2nc(C(Cc3cccc(C(=N)N)c3)NS(=O)(=O)c3ccccc3)sc2c1 (stereo not shown)
2. N=C(N)c1cccc(CC(NS(=O)(=O)c2cccc(-c3ccc(Cl)cc3Cl)c2)c2nc3ccccc3s2)c1 (racemic) [3 (racemic)]
3. N=C(N)c1cccc(CC(NS(=O)(=O)c2ccccc2)c2nc3ccccc3s2)c1 (racemic) [1 (racemic mixture, batch 1)]
4. N=C(N)c1cccc(C[C@H](NS(=O)(=O)c2ccccc2)c2nnco2)c1 (single isomer, unassigned) [Compound 2 (enantiomer 1, batch 1)]

OUTPUT:
1: < 10 µM; 2: > 10 µM; 3: < 10 µM; 4: > 10 µM

###

- measurement.target: Thrombin a (Homo sapiens, UniProt P00734)
- experiment: Non-TMPRSS2 protease panel: Thrombin a
- Assay type: biochemical
- stated.conditions: 10-dose, 3-fold from 10 μM
pIC50: −log10 of the molar value.
measurement.type: pIC50

Known pIC50 results, listed for orientation:
>>> df
                                   molecule  measurement_type  measured_result
0  COc1ccc2nc(C(Cc3cccc(C(=N)N)c3)NS(=O)(=O)c3ccccc3)sc2c1 (stereo not shown) [Compound 11]             pIC50           < 5.00
1  N=C(N)c1cccc(CC(NS(=O)(=O)c2ccccc2)c2nc3ccccc3s2)c1 (racemic) [1 (racemic mixture, batch 1)]             pIC50           < 5.00
2  N=C(N)c1cccc(C[C@H](NS(=O)(=O)c2ccccc2)c2nnco2)c1 (single isomer, unassigned) [Compound 2 (enantiomer 1, batch 1)]             pIC50           < 5.00

INPUT: Entry N=C(N)c1cccc(CC(NS(=O)(=O)c2cccc(-c3ccc(Cl)cc3Cl)c2)c2nc3ccccc3s2)c1 (racemic) [3 (racemic)] has what pIC50?
OUTPUT: > 5.00
